Test system: 994946-033-R-J1-PDC complex spheroid viability;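 also: spheroids exposed to drugs for 7 days; 100% = DMSO vehicle treated spheroids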
PROTOCOL TEXT: Anticancer human tumor 994946-033-R-J1-PDC patient-derived melanoma cell line growth inhibition [POLQ]
CONDITION: second compound 0.0316 µM; first compound 0.316 µM; hits give low values
MEASURED QUANTITY: viability, T/C (%)
State just the number; it will be interpreted in %.

COMPOUND	TARGET	viability, T/C [%]
CC1COCCN1c1cc(C2(O)CC3CCC(C2)O3)c2cnn(-c3ccn[nH]3)c2n1 (stereo not given) + COC1C(OC(N)=O)C(O)C(Oc2ccc3c(O)c(NC(=O)c4ccc(O)c(CC=C(C)C)c4)c(=O)oc3c2C)OC1(C)C	994946-033-R-J1-PDC complex spheroid viability	17.2
O=c1[nH]cc(F)c(=O)[nH]1 + Nc1ccc(C#CCN(C(=O)Cc2ncc(C(F)(F)F)cc2C(F)(F)F)c2ccc(F)cc2)nn1	994946-033-R-J1-PDC complex spheroid viability	92.5
CC1COCCN1c1cc(C2(S(C)(=N)=O)CC2)nc(-c2ccnc3[nH]ccc23)n1 (stereo not given) + COC1C(OC(N)=O)C(O)C(Oc2ccc3c(O)c(NC(=O)c4ccc(O)c(CC=C(C)C)c4)c(=O)oc3c2C)OC1(C)C	994946-033-R-J1-PDC complex spheroid viability	99.4
CCc1cc2c(N3CCc4c(cc(Cn5ccnc5)cc4-c4cn(C)nc4C(F)(F)F)C3=O)cc(C)nc2c(OC)n1 + Cc1cccc(N(C)C(=O)C2C(O)CCN2c2nc(C)cc(C(F)(F)F)c2C#N)c1	994946-033-R-J1-PDC complex spheroid viability	94.6

Now let's try a different one.
Query: Return value of viability, T/C for input C#Cc1c(F)ccc2cc(O)cc(-c3ncc4c(N5CC6CCC(C5)N6)nc(OCC56CCCN5CC(F)C6)nc4c3F)c12 (stereo not given) + Cc1cccc(N(C)C(=O)C2C(O)CCN2c2nc(C)cc(C(F)(F)F)c2C#N)c1 , no commentary.
Reply: 101
